Data provenance is patent US9029386B2.

- Target: Hck(h) (Homo sapiens, UniProt P08631)
- Construct: purchased Upstate Biotechnology (Dundee, UK), KinaseProfiler service
- Sequence (P08631 whole entry): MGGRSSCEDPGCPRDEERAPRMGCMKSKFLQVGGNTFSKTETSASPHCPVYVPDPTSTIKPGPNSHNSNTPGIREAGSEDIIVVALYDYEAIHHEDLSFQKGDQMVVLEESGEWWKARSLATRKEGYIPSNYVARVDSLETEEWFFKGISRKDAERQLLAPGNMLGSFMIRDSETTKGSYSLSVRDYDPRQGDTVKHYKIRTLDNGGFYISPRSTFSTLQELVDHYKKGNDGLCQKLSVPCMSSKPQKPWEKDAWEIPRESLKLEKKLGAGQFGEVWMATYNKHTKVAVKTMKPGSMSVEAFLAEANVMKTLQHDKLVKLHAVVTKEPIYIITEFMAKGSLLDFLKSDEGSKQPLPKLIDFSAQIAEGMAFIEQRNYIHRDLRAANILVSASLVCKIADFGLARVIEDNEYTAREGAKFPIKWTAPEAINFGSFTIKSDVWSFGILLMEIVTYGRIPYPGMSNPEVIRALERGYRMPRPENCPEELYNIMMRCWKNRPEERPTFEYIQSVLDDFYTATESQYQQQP
- Assay Details: KinaseProfiler assay (Upstate), Hck
- Assay type: biochemical
- Condition Details: 0.1 μM
Below is a list of entries, each paired with its recorded inhibition at 0.1 µM value.
# value in %; strip the unit string

Recorded inhibition at 0.1 µM, per entry:
Cc1cccc(C(=O)Nc2cccc([C@H](C)Nc3cncc(-c4ccc(N5CCN(C)CC5)cc4)n3)c2)c1 [Compound 129] : 84
C[C@H](Nc1cncc(-c2cccc(N3CCOCC3)c2)n1)c1cccc(NC(=O)c2cccc(C(F)(F)F)c2)c1 [Compound 149] : 94
C[C@H](Nc1cncc(-c2ccc(N3CCN(C)CC3)cc2)n1)c1cccc(NC(=O)c2cccc(C(F)(F)F)c2)c1 [Compound 148] : 96
Cc1cccc(C(=O)Nc2ccc(C)c([C@H](C)Nc3cncc(Cl)n3)c2)c1 [Compound 168] : 96
Cc1cccc(C(=O)Nc2cccc([C@H](C)Nc3cncc(-c4ccc(S(N)(=O)=O)cc4)n3)c2)c1 [Compound 77] : 64
Cc1cccc(C(=O)Nc2cccc([C@H](C)Nc3cncc(-n4ccnc4)n3)c2)c1 [Compound 143] : 55

q: # lookup: inhibition at 0.1 µM of Cc1cccc(C(=O)Nc2cccc([C@H](C)Nc3cncc(-c4cccc(N5CCOCC5)c4)n3)c2)c1 [Compound 147]
a: 90

q: So what's the measured inhibition at 0.1 µM for this one? Cc1cccc(C(=O)Nc2cccc([C@H](C)Nc3cncc(C(N)=O)n3)c2)c1 [Compound 133]
a: 23

q: Query (molecule): C[C@H](Nc1cncc(Cl)n1)c1cccc(NC(=O)c2cccc(C(F)(F)F)c2)c1 [Compound 114] ; field requested: inhibition at 0.1 µM
a: 74

====

- Target: Flt1(h) (Homo sapiens)
- Construct: purchased Upstate Biotechnology (Dundee, UK), KinaseProfiler service
- Sequence (P17948 27-1338): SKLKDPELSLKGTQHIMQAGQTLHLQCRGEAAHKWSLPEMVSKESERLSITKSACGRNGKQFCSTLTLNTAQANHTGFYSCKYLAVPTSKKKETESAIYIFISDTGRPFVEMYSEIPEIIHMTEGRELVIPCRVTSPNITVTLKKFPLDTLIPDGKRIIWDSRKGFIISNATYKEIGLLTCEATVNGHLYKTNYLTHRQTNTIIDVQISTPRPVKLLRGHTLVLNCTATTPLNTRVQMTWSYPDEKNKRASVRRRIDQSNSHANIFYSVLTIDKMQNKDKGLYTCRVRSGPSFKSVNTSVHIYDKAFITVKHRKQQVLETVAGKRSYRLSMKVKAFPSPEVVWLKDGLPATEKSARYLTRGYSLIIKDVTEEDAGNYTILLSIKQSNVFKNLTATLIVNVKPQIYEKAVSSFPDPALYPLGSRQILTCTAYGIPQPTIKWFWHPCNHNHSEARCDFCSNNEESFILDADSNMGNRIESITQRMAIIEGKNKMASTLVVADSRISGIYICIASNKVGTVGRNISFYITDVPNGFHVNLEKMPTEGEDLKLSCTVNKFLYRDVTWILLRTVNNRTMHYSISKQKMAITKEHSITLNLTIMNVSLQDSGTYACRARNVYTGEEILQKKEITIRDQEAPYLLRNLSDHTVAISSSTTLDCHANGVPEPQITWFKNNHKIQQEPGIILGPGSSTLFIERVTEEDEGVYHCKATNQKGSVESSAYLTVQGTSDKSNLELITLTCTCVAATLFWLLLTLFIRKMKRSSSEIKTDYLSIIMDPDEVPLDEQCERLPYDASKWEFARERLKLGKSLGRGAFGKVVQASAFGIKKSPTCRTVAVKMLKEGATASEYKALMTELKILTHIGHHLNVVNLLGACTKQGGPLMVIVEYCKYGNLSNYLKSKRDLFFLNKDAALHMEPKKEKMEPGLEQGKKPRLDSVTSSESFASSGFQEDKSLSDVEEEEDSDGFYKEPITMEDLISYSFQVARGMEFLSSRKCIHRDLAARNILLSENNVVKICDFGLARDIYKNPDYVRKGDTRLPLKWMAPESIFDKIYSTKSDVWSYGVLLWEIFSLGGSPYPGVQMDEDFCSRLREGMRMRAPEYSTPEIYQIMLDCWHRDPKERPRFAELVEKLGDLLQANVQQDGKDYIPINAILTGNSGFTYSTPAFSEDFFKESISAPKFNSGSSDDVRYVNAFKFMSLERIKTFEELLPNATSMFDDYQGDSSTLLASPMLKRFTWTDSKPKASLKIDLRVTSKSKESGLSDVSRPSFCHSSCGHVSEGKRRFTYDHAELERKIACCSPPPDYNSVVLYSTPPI
- Assay Details: KinaseProfiler assay (Upstate), Flt1
- Assay type: biochemical
- Condition Details: 1 μM
Measured Attribute: inhibition at 1 µM (%)
The reply should contain only the number, in %.

Cc1cccc(C(=O)Nc2cccc([C@H](C)Nc3cncc(-n4ccnc4)n3)c2)c1 : 96
C[C@H](Nc1cncc(-c2cccc(N3CCOCC3)c2)n1)c1cccc(NC(=O)c2cccc(C(F)(F)F)c2)c1 : 99
Cc1cccc(C(=O)Nc2cccc([C@H](C)Nc3cncc(-c4ccc(S(N)(=O)=O)cc4)n3)c2)c1 : 100

Next item in the queue.
q: Give recorded inhibition at 1 µM with Flt1(h) (Homo sapiens) for the following molecule: Cc1cccc(C(=O)Nc2ccc(C)c([C@H](C)Nc3cncc(Cl)n3)c2)c1
a: 100

====

Listing: inhibition at 1 µM of selected molecules
- Target: Flt4(h) (Homo sapiens, UniProt P35916)
- Construct: purchased Upstate Biotechnology (Dundee, UK), KinaseProfiler service
- Sequence (P35916 25-1363): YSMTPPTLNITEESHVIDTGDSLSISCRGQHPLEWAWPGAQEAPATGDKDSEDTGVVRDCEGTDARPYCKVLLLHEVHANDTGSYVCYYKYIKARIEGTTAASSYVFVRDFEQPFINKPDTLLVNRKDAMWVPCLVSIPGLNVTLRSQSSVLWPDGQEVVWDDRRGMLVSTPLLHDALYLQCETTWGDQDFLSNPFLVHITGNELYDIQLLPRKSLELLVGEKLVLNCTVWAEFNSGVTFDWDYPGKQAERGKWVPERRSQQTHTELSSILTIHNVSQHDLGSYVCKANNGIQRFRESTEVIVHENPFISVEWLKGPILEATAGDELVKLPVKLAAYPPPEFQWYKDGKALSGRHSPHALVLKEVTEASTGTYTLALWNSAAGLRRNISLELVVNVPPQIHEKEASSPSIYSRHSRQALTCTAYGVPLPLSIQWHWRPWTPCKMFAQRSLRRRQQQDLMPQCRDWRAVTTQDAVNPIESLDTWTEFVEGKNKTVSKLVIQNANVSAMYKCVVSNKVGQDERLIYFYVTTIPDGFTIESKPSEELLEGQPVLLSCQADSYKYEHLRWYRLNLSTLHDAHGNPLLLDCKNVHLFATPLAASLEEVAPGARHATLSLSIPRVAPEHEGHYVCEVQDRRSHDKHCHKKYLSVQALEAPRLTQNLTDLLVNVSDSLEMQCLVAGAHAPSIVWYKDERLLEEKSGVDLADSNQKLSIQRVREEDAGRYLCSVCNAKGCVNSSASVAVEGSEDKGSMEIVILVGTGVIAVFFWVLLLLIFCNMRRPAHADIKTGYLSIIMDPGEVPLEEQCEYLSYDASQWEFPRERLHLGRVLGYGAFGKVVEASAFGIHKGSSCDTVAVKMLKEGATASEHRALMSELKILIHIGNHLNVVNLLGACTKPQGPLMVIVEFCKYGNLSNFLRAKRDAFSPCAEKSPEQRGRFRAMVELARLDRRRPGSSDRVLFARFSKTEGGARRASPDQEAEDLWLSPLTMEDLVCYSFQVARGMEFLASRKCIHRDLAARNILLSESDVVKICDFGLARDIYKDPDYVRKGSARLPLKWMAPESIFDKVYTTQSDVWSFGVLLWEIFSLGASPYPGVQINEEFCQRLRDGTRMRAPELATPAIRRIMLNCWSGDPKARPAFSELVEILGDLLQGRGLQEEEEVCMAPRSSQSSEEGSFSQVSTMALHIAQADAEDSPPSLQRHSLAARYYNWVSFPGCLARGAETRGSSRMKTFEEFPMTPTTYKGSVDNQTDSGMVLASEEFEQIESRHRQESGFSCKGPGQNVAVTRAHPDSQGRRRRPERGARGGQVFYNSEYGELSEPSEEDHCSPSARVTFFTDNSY
- Assay Details: KinaseProfiler assay (Upstate), Flt4
- Type: biochemical
- Condition Details: 1 μM
Answer in %, number only, no unit symbol.

Cc1cccc(C(=O)Nc2cccc([C@H](C)Nc3cncc(-c4cccc(N5CCOCC5)c4)n3)c2)c1 : 99

q: API: value(readout= inhibition at 1 µM, system= Flt4(h) (Homo sapiens, UniProt P35916), query= Cc1cccc(C(=O)Nc2cccc([C@H](C)Nc3cncc(-c4ccc(N5CCN(C)CC5)cc4)n3)c2)c1 )
a: 100

q: What inhibition at 1 µM appears in the records for this molecule with Flt4(h) (Homo sapiens, UniProt P35916)? Cc1cccc(C(=O)Nc2ccc(C)c([C@H](C)Nc3cncc(Cl)n3)c2)c1
a: 97

q: Given the entry C[C@H](Nc1cncc(Cl)n1)c1cccc(NC(=O)c2cccc(C(F)(F)F)c2)c1 , what inhibition at 1 µM was observed with Flt4(h) (Homo sapiens, UniProt P35916)?
a: 99

q: Hello, I am looking for reported inhibition at 1 µM with Flt4(h) (Homo sapiens, UniProt P35916) for Cc1cccc(C(=O)Nc2cccc([C@H](C)Nc3cncc(-n4ccnc4)n3)c2)c1 . Could you help?
a: 99

====

- Target: FLT-3 tyrosine kinase (Homo sapiens, UniProt P36888)
Measured Attribute: IC50

These recorded examples may help you get a feel for the data.
COc1cc(-c2cncc(N[C@@H](C)c3cccc(NC(=O)c4cncc(C)c4)c3)n2)ccc1O : < 10 µM
COc1cc(-c2cncc(N[C@@H](C)c3cccc(NC(=O)c4cccnc4)c3)n2)ccc1N : < 10 µM
Cc1cccc(C(=O)Nc2cccc([C@H](C)Nc3cncc(-c4ccc(O)nc4)n3)c2)c1 : < 10 µM

q: Notebook entry, FLT-3 tyrosine kinase (Homo sapiens, UniProt P36888) assay: IC50 of Cc1cncc(C(=O)Nc2cccc([C@H](C)Nc3cncc(-c4ccc(N5CCOCC5)nc4)n3)c2)c1 = ?
a: > 10 µM

====

- Target: Ret(h) (Homo sapiens, UniProt P07949)
- Construct: purchased Upstate Biotechnology (Dundee, UK), KinaseProfiler service
- Sequence (P07949 29-1114): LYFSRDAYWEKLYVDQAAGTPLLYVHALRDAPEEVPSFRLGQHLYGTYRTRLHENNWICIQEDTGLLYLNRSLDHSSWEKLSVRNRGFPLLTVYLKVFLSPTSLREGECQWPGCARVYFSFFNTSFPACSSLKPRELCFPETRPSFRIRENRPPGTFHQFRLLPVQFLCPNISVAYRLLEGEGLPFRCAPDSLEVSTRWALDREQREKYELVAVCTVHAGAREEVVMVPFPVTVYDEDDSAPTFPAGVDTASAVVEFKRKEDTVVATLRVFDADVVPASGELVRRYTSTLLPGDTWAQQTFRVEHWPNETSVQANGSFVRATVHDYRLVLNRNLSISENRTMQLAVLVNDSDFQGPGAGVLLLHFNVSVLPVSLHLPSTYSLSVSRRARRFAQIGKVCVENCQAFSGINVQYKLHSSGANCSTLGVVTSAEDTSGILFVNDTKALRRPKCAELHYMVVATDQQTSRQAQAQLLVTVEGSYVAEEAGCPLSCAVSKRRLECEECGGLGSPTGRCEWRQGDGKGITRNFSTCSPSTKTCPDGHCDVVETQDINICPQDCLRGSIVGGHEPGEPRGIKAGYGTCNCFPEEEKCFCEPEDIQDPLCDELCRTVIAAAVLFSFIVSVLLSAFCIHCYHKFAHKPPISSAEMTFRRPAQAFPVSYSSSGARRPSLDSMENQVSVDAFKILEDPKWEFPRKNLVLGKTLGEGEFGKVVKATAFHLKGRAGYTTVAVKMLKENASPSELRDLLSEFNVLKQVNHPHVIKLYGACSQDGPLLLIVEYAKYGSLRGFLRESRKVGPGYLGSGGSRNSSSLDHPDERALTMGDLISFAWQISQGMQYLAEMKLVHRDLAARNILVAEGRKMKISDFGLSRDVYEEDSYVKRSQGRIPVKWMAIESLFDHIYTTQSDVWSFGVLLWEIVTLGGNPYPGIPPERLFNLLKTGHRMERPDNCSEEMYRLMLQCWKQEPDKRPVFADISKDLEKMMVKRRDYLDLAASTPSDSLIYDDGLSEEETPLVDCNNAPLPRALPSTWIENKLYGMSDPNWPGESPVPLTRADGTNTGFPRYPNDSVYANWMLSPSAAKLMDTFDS
- Assay Details: KinaseProfiler assay (Upstate), Ret
- Format: biochemical
- Condition Details: 0.1 μM
Assign Satisfied whenever inhibition at 0.1 µM does not fall below 20%; assign Not satisfied whenever it does.

Illustrative cases are given below, each with its answer.
Cc1cccc(C(=O)Nc2cccc([C@H](C)Nc3cncc(-c4ccc(N5CCN(C)CC5)cc4)n3)c2)c1 [Compound 129] : Not satisfied
Cc1cccc(C(=O)Nc2cccc([C@H](C)Nc3cncc(C(N)=O)n3)c2)c1 [Compound 133] : Not satisfied
Cc1cccc(C(=O)Nc2cccc([C@H](C)Nc3cncc(-c4ccc(S(N)(=O)=O)cc4)n3)c2)c1 [Compound 77] : Satisfied
C[C@H](Nc1cncc(Cl)n1)c1cccc(NC(=O)c2cccc(C(F)(F)F)c2)c1 [Compound 114] : Satisfied
Cc1cccc(C(=O)Nc2ccc(C)c([C@H](C)Nc3cncc(Cl)n3)c2)c1 [Compound 168] : Satisfied

q: Reported inhibition at 0.1 µM at or above 20%? C[C@H](Nc1cncc(-c2ccc(N3CCN(C)CC3)cc2)n1)c1cccc(NC(=O)c2cccc(C(F)(F)F)c2)c1 [Compound 148]
a: Satisfied

q: Reported inhibition at 0.1 µM at or above 20%? Cc1cccc(C(=O)Nc2cccc([C@H](C)Nc3cncc(-c4cccc(N5CCOCC5)c4)n3)c2)c1 [Compound 147]
a: Satisfied

q: Would you say C[C@H](Nc1cncc(-c2cccc(N3CCOCC3)c2)n1)c1cccc(NC(=O)c2cccc(C(F)(F)F)c2)c1 [Compound 149] shows inhibition at 0.1 µM at minimum 20%?
a: Satisfied

q: Exam item: decide whether the reported inhibition at 0.1 µM for Cc1cccc(C(=O)Nc2cccc([C@H](C)Nc3cncc(-n4ccnc4)n3)c2)c1 [Compound 143] is at least 20%.
a: Not satisfied

====

- Target: PTK5(h) (Homo sapiens, UniProt P42685)
- Construct: purchased Upstate Biotechnology (Dundee, UK), KinaseProfiler service
- Sequence (P42685 whole entry): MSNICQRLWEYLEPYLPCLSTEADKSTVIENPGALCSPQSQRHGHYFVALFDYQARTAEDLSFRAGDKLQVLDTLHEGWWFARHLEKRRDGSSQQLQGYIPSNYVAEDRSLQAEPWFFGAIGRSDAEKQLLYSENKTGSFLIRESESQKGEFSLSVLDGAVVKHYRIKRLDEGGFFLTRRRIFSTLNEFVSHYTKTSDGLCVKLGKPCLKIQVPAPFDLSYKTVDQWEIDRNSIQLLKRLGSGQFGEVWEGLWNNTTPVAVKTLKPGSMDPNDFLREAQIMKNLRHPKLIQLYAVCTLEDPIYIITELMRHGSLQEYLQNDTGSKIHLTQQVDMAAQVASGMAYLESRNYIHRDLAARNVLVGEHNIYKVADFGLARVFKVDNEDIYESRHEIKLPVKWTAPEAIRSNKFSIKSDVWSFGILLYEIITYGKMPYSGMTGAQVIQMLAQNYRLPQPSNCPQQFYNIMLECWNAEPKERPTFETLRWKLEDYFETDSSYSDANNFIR
- Assay Details: KinaseProfiler assay (Upstate), PTK5
- Assay type: biochemical
- Condition Details: 1 μM
Measured Attribute: inhibition at 1 µM (%)
Report the value in % with no unit label.

Cc1cccc(C(=O)Nc2cccc([C@H](C)Nc3cncc(-c4cccc(N5CCOCC5)c4)n3)c2)c1 : 100
C[C@H](Nc1cncc(Cl)n1)c1cccc(NC(=O)c2cccc(C(F)(F)F)c2)c1 : 100
Cc1cccc(C(=O)Nc2ccc(C)c([C@H](C)Nc3cncc(Cl)n3)c2)c1 : 100
Cc1cccc(C(=O)Nc2cccc([C@H](C)Nc3cncc(C(N)=O)n3)c2)c1 : 98
Cc1cccc(C(=O)Nc2cccc([C@H](C)Nc3cncc(-c4ccc(S(N)(=O)=O)cc4)n3)c2)c1 : 99
C[C@H](Nc1cncc(-c2cccc(N3CCOCC3)c2)n1)c1cccc(NC(=O)c2cccc(C(F)(F)F)c2)c1 : 100
C[C@H](Nc1cncc(-c2ccc(N3CCN(C)CC3)cc2)n1)c1cccc(NC(=O)c2cccc(C(F)(F)F)c2)c1 : 100
Cc1cccc(C(=O)Nc2cccc([C@H](C)Nc3cncc(-n4ccnc4)n3)c2)c1 : 96

Next up:
q: inhibition at 1 µM lookup needed for Cc1cccc(C(=O)Nc2cccc([C@H](C)Nc3cncc(-c4ccc(N5CCN(C)CC5)cc4)n3)c2)c1 , thanks.
a: 100

====

- Target: FLT-3 tyrosine kinase (Homo sapiens)
- Sequence (P36888 27-993): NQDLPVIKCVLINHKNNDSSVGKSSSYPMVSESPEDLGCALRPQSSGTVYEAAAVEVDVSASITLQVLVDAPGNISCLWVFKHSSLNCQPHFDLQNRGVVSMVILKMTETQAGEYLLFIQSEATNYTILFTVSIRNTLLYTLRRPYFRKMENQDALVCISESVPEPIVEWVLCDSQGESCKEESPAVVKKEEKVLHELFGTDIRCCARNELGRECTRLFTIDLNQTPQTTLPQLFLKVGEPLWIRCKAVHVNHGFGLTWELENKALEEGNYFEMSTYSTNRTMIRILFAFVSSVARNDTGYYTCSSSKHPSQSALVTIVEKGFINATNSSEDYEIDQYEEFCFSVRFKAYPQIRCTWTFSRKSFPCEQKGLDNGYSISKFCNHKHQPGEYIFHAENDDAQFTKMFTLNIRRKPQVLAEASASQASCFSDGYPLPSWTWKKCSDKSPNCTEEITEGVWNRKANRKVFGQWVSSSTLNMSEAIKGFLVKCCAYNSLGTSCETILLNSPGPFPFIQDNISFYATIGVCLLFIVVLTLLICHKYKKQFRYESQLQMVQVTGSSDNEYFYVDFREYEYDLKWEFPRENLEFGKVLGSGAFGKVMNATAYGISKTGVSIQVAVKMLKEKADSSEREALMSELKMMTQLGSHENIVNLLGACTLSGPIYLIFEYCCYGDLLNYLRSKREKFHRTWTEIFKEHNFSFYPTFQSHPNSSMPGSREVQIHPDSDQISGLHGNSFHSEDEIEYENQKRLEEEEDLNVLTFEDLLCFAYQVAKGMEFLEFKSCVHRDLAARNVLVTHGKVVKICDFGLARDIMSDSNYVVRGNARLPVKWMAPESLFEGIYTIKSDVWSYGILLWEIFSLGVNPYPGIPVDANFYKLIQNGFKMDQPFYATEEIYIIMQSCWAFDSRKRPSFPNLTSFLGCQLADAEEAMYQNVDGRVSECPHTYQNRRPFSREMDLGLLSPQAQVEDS
pIC50: −log10 of the molar value.
Measured pIC50 values are reported for all entries that follow.

Check out these entries, answers already filled in.
Cc1ccnc(C(=O)Nc2cccc([C@H](C)Nc3cncc(Cl)n3)c2)c1 : < 5.00
COc1cccc(-c2cncc(N[C@@H](C)c3cccc(NC(=O)c4cncc(C)c4)c3)n2)c1 : > 5.00

Let's switch to this compound now.
q: pIC50 lookup needed for Cc1cncc(C(=O)Nc2cccc([C@H](C)Nc3cncc(Cl)n3)c2)c1 , thanks.
a: < 5.00
